targetOrSystem: V₂ receptor (Rattus norvegicus, UniProt Q00788)
Construct: Using rat kidney plasma membrane preparations
Sequence (Q00788 whole entry): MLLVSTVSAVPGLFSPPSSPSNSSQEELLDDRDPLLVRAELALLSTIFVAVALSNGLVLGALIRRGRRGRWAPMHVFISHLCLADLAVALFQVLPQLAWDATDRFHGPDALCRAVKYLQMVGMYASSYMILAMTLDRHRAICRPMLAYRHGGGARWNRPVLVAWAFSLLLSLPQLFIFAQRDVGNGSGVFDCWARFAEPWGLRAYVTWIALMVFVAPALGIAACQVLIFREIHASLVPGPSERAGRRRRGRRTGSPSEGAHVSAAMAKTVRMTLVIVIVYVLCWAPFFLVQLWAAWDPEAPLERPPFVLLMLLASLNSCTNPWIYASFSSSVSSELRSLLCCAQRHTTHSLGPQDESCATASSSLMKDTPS
protocolDetails: V₂ receptor binding assay ([³H]-Arg-vasopressin, rat kidney plasma membrane preparations)
conditionContext: 4°C for 3 hours
pIC50: −log10 of the molar value.
valueType: pIC50

[P] O=C(NC1CCCCC1)c1ccc(C(=O)N2CCCc3ccccc32)cc1
[Q] CC(=O)OCC1CCCN(C(=O)c2ccc(NC(=O)c3ccccc3C)cc2)c2ccccc21 (stereo not shown)
[R] COC1(OC)CCN(C(=O)c2ccc(NC(=O)c3ccccc3C)cc2)c2ccccc2C1
[S] CN1CCCN(C(=O)c2ccc(NC(=O)C3CCCCC3)cc2)c2ccccc21
Sort key: pIC50. Order: high to low. Scope: items listed above. Reply with the item labels sorted in the order that was asked for. Q, S, R, P

----------
targetOrSystem: V₁ receptor (Rattus norvegicus, UniProt P30560)
Construct: Using rat liver plasma membrane preparations
Sequence (P30560 whole entry): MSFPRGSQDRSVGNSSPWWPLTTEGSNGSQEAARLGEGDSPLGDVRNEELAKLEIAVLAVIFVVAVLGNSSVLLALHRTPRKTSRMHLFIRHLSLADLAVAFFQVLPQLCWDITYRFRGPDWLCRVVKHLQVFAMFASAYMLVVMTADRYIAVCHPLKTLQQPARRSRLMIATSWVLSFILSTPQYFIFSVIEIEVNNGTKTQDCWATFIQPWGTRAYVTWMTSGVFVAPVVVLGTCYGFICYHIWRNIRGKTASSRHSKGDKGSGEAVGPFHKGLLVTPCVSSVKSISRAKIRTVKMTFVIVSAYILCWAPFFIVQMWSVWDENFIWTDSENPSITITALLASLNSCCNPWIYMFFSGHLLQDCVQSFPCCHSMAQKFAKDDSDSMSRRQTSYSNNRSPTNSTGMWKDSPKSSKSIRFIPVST
protocolDetails: V₁ receptor binding assay ([³H]-Arg-vasopressin, rat liver plasma membrane preparations)
conditionContext: 37°C for 10 minutes
pIC50: −log10 of the molar value.
valueType: pIC50

# count of solved cases: 5
CNC1CCCN(C(=O)c2ccc(NC(=O)c3ccccc3C)cc2)c2ccc(Cl)cc21 (centres unmarked) [compound 287]    7.19
Cc1ccccc1C(=O)Nc1ccc(C(=O)N2CCCC(NC(=O)Nc3ccccc3)c3ccccc32)cc1 (centres unmarked) [compound 280]    6.33
C=C1CCCN(C(=O)c2ccc(NC(=O)c3ccccc3C)cc2)c2ccccc21 [compound 209]    7.13
CN(CCO)CCOc1ccccc1C(=O)Nc1ccc(C(=O)N2CCCCc3ccccc32)cc1 [compound 125]    7.04
Cc1ccccc1C(=O)Nc1ccc(C(=O)N2CCCC(NC3CCN(Cc4ccccc4)CC3)c3ccccc32)cc1 (centres unmarked) [compound 274]    6.96

[1] CC(C)NCCCCOc1ccccc1C(=O)Nc1ccc(C(=O)N2CCCC(O)c3ccccc32)cc1 (centres unmarked) [compound 312]
[2] Cc1ccccc1C(=O)Nc1ccc(C(=O)N2CCCC(CNC=O)c3ccccc32)cc1 (centres unmarked) [compound 269]
[3] Cc1cc(C(=O)N2CCCCc3ccccc32)ccc1NC(=O)c1ccccc1C [compound 78]
Order the 3 compounds from highest to lowest pIC50. Your task in answering is to list the labels in the requested order. 1, 3, 2
(1: 7.25, 3: 7.00, 2: 6.32)

----------
targetOrSystem: V₂ receptor (Rattus norvegicus)
Construct: Using rat kidney plasma membrane preparations; from tissue; host or cells: rat kidney plasma membranes
protocolDetails: V₂ receptor binding assay ([³H]-Arg-vasopressin, rat kidney plasma membrane preparations)
conditionContext: 4°C for 3 hours
valueType: IC50 (µM)

O=C(Nc1cccc(Cl)c1)c1ccc(C(=O)N2CCCc3ccccc32)cc1    1.07

[P] O=C(Nc1ccc(C(=O)N2CCCCCc3ccccc32)cc1)c1ccccc1
[Q] O=C(Nc1ccc(C(=O)N2CCCC(NC3CC3)c3ccccc32)c(Cl)c1)c1ccc(Cl)cc1Cl (stereo not shown)
Could you determine which record has the numerically smaller IC50? Candidates: P and Q Which one? Tell me its label. Q

[P] Cc1ccccc1C(=O)Nc1ccc(C(=O)N2CCCC(CO)c3ccccc32)cc1 (stereo not shown)
[Q] O=C(Nc1ccc(C(=O)N2CCCC(NCCc3ccccn3)c3ccccc32)cc1)c1ccccc1Cl (stereo not shown)
[R] CNC1CCCN(C(=O)c2ccc(NC(=O)c3cc(Cl)cc(Cl)c3)cc2)c2ccccc21 (stereo not shown)
Arrange the 3 entries by IC50 so the values rise. # format: label list in the order the request specifies P, R, Q

[A] CC(=O)N1CCN(C(=O)COC2CCCN(C(=O)c3ccc(NC(=O)c4ccccc4C)cc3)c3ccccc32)CC1 (stereo not shown)
[B] O=C(Nc1ccc(C(=O)N2CCCc3ccccc32)cc1)C1CCCCC1
Which has the higher IC50, A or B ? Your answer should be the label of the entry you select. B

[A] CC(=O)N1CCN(C2CCCN(C(=O)c3ccc(NC(=O)c4ccccc4Cl)cc3)c3ccccc32)CC1 (stereo not shown)
[B] Cc1cccc(C(=O)Nc2ccc(C(=O)N3CCCN(C)c4ccccc43)cc2)c1C
Please indicate which entry, A or B , has the lower recorded IC50 value. Answer = label. B
(B: 0.005 µM, A: 0.074 µM)

----------
targetOrSystem: V₂ receptor (Rattus norvegicus, UniProt Q00788)
Construct: Using rat kidney plasma membrane preparations
protocolDetails: V₂ receptor binding assay ([³H]-Arg-vasopressin, rat kidney plasma membrane preparations)
conditionContext: 4°C for 3 hours
Experimental: Using rat kidney plasma membrane preparations prepared according to O. Hechter's method [cf: J. Bio. […] The amount of [³H]-vasopressin combined with the membrane is measured by liquid scintillation counter and the rate of the inhibitory effect of the test compound is estimated according to the following equation. […] The results are expressed as IC₅₀ values, which is the concentration of the test compound required to achieve the inhibitory effect in the rate of 50 %.
pIC50: −log10 of the molar value.
valueType: pIC50

Record excerpt, results attached:
NC1Cc2ccccc2N(C(=O)c2ccc(NC(=O)c3cc(Cl)cc(Cl)c3)cc2)C1 (stereo not shown)    6.35
CC(=O)Nc1cccc(C(=O)Nc2ccc(C(=O)N3CCCC(N(C)C)c4ccccc43)cc2)c1 (stereo not shown)    6.32

[I] CN(C)c1ccccc1C(=O)Nc1ccc(C(=O)N2CCCC(N(C)C)c3ccccc32)cc1 (stereo not shown)
[II] Cc1ccccc1C(=O)Nc1ccc(C(=O)N2CCCC(NC3CCCC3)c3ccccc32)c(Cl)c1 (stereo not shown)
# argmax over pIC50 for candidates I and II State the label of the item chosen. II
(II: 7.28, I: 7.00)

----------
targetOrSystem: V₁ receptor (Rattus norvegicus)
Construct: Using rat liver plasma membrane preparations
protocolDetails: V₁ receptor binding assay ([³H]-Arg-vasopressin, rat liver plasma membrane preparations)
conditionContext: 37°C for 10 minutes
pIC50: −log10 of the molar value.
valueType: pIC50

Cc1ccccc1C(=O)Nc1ccc(C(=O)N2CCCC(OCC(=O)NCc3ccncc3)c3ccccc32)cc1 (stereo not shown) [compound 290]    6.68

[P] NC(=O)COC1CCCN(C(=O)c2ccc(NC(=O)c3ccccc3Cl)cc2)c2ccccc21 (stereo not shown) [compound 164]
[Q] Cc1ccccc1C(=O)Nc1ccc(C(=O)N2CCCCc3ccccc32)cc1 [compound 28]
[R] Cc1ccccc1C(=O)Nc1ccc(C(=O)N2CCC(O)Cc3ccccc32)cc1 (stereo not shown) [compound 214]
Ordering criterion: pIC50; begin with the maximum. Provide the labels, sequenced as the question asks. Q, P, R

----------
targetOrSystem: V₂ receptor (Rattus norvegicus, UniProt Q00788)
Construct: Using rat kidney plasma membrane preparations
protocolDetails: V₂ receptor binding assay ([³H]-Arg-vasopressin, rat kidney plasma membrane preparations)
conditionContext: 4°C for 3 hours
pIC50: −log10 of the molar value.
valueType: pIC50

Known results for molecules:
CCN(CC)C(=O)COc1ccccc1C(=O)Nc1ccc(C(=O)N2CCCCc3ccccc32)cc1    6.89
CN1CC(=O)OC2CCN(C(=O)c3ccc(NC(=O)c4ccccc4Cl)cc3)c3ccccc3C21 (centres unmarked)    7.03
CNC(=O)COC1CCCN(C(=O)c2ccc(NC(=O)c3ccccc3Cl)cc2)c2ccccc21 (centres unmarked)    8.00

[I] COc1ccc(NC(=O)c2ccc(C(=O)N3CCCc4ccccc43)cc2)cc1
[II] Cc1ccccc1NCC(=O)Nc1ccc(C(=O)N2CCCC(N(C)C)c3ccccc32)cc1 (centres unmarked)
[III] O=C(Nc1ccc(C(=O)N2CCCC(N3CCCC3)c3ccccc32)cc1)c1ccccc1Cl (centres unmarked)
[IV] CCN(CC(=O)Nc1ccc(C(=O)N2CCCC(NC)c3ccccc32)c(Cl)c1)c1ccccc1 (centres unmarked)
Number of molecules to sort: 4. Sort criterion: pIC50, ascending. Quick reminder: the answer is the labels in the order asked. I, III, II, IV
(I: 6.00, III: 6.96, II: 7.22, IV: 7.62)

----------
targetOrSystem: V₁ receptor (Rattus norvegicus, UniProt P30560)
Construct: Using rat liver plasma membrane preparations
protocolDetails: V₁ receptor binding assay ([³H]-Arg-vasopressin, rat liver plasma membrane preparations)
conditionContext: 37°C for 10 minutes
valueType: IC50 (nM)

Cc1ccccc1C(=O)Nc1ccc(C(=O)N2CCCC(OCC(=O)N(C)C)c3ccccc32)cc1 (centres unmarked)    220
O=C(Nc1ccc(C(=O)N2CCCCc3ccccc32)cc1)c1cc(Cl)cc(Cl)c1    300
CNC(=O)COC1CCCN(C(=O)c2ccc(NC(=O)c3ccccc3Cl)cc2)c2ccccc21 (centres unmarked)    170

[P] CN(C)C1CCCN(C(=O)c2ccc(NC(=O)c3ccccc3Cl)cc2)c2ccc(Cl)cc21 (centres unmarked)
[Q] CNC(=O)OC1CCCN(C(=O)c2ccc(NC(=O)c3ccccc3C)cc2)c2ccccc21 (centres unmarked)
Which one would you say has the larger IC50 value: P , or Q ? # respond with the chosen item's label Q

[a] Cc1ccccc1C(=O)Nc1ccc(C(=O)N2CCCC(OCC(=O)N3CCCC3C(N)=O)c3ccccc32)cc1 (centres unmarked)
[b] CNC1CCCN(C(=O)c2ccc(NC(=O)c3ccccc3C)c(OC)c2)c2ccc(Cl)cc21 (centres unmarked)
Lab notebook, comparison: a versus b , higher IC50 goes to which? # answer = label of selected item a
